# systemUnderTest: B^0AT2/SLC6A15 (eGFP-hSLC6A15) (Homo sapiens, UniProt Q9H2J7)
# Sequence (Q9H2J7 whole entry): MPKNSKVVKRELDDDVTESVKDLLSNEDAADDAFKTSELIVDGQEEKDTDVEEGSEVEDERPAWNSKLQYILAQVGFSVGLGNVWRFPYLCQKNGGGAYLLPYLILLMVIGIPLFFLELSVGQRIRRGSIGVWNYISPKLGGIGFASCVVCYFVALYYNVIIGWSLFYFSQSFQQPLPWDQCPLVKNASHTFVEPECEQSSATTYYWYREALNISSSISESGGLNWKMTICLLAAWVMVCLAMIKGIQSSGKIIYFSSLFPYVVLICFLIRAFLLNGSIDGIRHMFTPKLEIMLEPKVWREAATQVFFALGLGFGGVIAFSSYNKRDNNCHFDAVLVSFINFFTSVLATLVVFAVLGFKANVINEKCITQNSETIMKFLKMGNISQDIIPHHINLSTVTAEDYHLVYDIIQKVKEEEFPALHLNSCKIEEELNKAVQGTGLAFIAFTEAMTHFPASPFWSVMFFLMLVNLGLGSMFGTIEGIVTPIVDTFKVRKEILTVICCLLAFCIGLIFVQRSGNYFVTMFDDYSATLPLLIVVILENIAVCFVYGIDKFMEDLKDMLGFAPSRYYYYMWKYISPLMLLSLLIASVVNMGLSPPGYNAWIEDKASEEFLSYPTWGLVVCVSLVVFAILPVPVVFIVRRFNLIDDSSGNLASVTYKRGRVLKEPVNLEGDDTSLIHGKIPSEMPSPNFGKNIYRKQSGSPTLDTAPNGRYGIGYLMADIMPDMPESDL
# protocolNotes: cell-based
# Parameters: species or system HEK293 eGFP-hSLC6A15
// IC50 lookup, one value per entry
Your answer is read as nM, so omit the unit and give the number.

>  <molecule>
CCCCCOc1ccc(C2C3=C(CC(C)(C)CC3=O)Nc3ccccc3N2C(=O)c2ccccc2)cc1 (centres unmarked) [11j]

>  <IC50, nM>
1200

$$$$
>  <molecule>
CC(C)Oc1ccc(C2C3=C(CC(C)(C)CC3=O)Nc3ccccc3N2C(=O)c2ccccc2)cc1 (centres unmarked) [11h]

>  <IC50, nM>
1100

$$$$
>  <molecule>
CC1(C)CC(=O)C2=C(C1)Nc1ccccc1N(C(=O)c1ccccc1)C2c1ccc(C#N)cc1 (centres unmarked) [11e]

>  <IC50, nM>
730

$$$$
>  <molecule>
CC1(C)CC(=O)C2=C(C1)Nc1ccccc1N(C(=O)c1ccccc1)C2c1ccccc1 (centres unmarked) [11a]

>  <IC50, nM>
1200

$$$$

Query :: Find the recorded IC50 belonging to CCCOc1cccc(C2C3=C(CC(C)(C)CC3=O)Nc3ccccc3N2C(=O)c2ccccc2)c1 (centres unmarked) [11q] and report it.
Result :: 720

----------
# systemUnderTest: B^0AT2/SLC6A15 (eGFP-hSLC6A15) (Homo sapiens, UniProt Q9H2J7)
# protocolNotes: cell-based
# Design: species or system HEK293 eGFP-hSLC6A15
pIC50: −log10 of the molar value.
// pIC50 lookup, one value per entry

A selection of reference data follows.
>  <molecule>
Cc1ccc(C2C3=C(CC(c4cccc(Cl)c4)CC3=O)Nc3ccccc3N2C(=O)c2ccccc2)cc1 (stereo not drawn) [14k]

>  <pIC50>
< 4.10

$$$$
>  <molecule>
COc1ccc(C2C3=C(CC(c4ccc(OC)c(OC)c4)CC3=O)Nc3ccccc3N2C(=O)c2ccccc2)cc1 (stereo not drawn) [14f]

>  <pIC50>
< 4.10

$$$$

Turning now to a further record.
Query :: Please tell me: pIC50 of Cc1ccc(C2C3=C(CC(c4ccc(Cl)cc4)CC3=O)Nc3ccccc3N2C(=O)c2ccccc2)cc1 (stereo not drawn) [14j] , system B^0AT2/SLC6A15 (eGFP-hSLC6A15) (Homo sapiens, UniProt Q9H2J7)?
Result :: < 4.10
